Attribution: paper PMC12652692

test system: A549/ATCC; assay: NCI60 one-dose screen; assay type: cell-based; details: Homo sapiens, read-out: Growth percent
ASSAY ENDPOINT: activity at 10 µM (%)
Respond with the bare value in %.

Exercise: Determine its reported activity at 10 µM: COc1c(C)cc([P+](CCCCOc2cc(O)c3c(=O)cc(-c4ccccc4)oc3c2)(c2cc(C)c(OC)c(C)c2)c2cc(C)c(OC)c(C)c2)cc1C
Key: -66.1

Exercise: Determine its reported activity at 10 µM: O=c1cc(-c2ccccc2)oc2cc(OCCCC[P+](c3ccccc3)(c3ccccc3)c3ccccn3)cc(O)c12
Key: -43.5

Exercise: Determine its reported activity at 10 µM: O=c1cc(-c2ccccc2)oc2cc(OCCCC[P+](C3CCCCC3)(C3CCCCC3)C3CCCCC3)cc(O)c12
Key: -95.3

Exercise: Determine its reported activity at 10 µM: Cc1ccc([P+](CCCCOc2cc(O)c3c(=O)cc(-c4ccccc4)oc3c2)(c2ccc(C)cc2)c2ccc(C)cc2)cc1
Key: -49.5

Exercise: Determine its reported activity at 10 µM: O=c1cc(-c2ccccc2)oc2cc(OCCCC[P+](c3ccccc3)(c3ccccc3)c3ccccc3)cc(O)c12
Key: -56

Exercise: Determine its reported activity at 10 µM: O=c1cc(-c2ccccc2)oc2cc(OCCCC[P+](c3ccc(F)cc3)(c3ccc(F)cc3)c3ccc(F)cc3)cc(O)c12
Key: -41.1

Exercise: Determine its reported activity at 10 µM: COc1ccc([P+](CCCCOc2cc(O)c3c(=O)cc(-c4ccccc4)oc3c2)(c2ccc(OC)cc2)c2ccc(OC)cc2)cc1
Key: -91.2

Exercise: Determine its reported activity at 10 µM: Cc1ccccc1[P+](CCCCOc1cc(O)c2c(=O)cc(-c3ccccc3)oc2c1)(c1ccccc1C)c1ccccc1C
Key: -94.1

Exercise: Determine its reported activity at 10 µM: O=c1cc(-c2ccccc2)oc2cc(O)cc(O)c12 [compound 2, 5,7-dihydroxyflavone, reference compound]
Key: 98.5

* * *

test system: KM12; assay: NCI60 one-dose screen; type: cell-based; conditions: Homo sapiens; KM12, 10 μM; read-out: Growth percent
Each entry gets -1 if its activity at 10 µM stays under -80%, and 1 if its activity at 10 µM is -80% or above.

Exercise: Does the molecule Cc1ccccc1[P+](CCCCOc1cc(O)c2c(=O)cc(-c3ccccc3)oc2c1)(c1ccccc1C)c1ccccc1C have recorded activity at 10 µM that is -80% or more?
Key: -1

Exercise: Does the molecule COc1ccc([P+](CCCCOc2cc(O)c3c(=O)cc(-c4ccccc4)oc3c2)(c2ccc(OC)cc2)c2ccc(OC)cc2)cc1 have recorded activity at 10 µM that is -80% or more?
Key: -1

Exercise: Does the molecule O=c1cc(-c2ccccc2)oc2cc(OCCCC[P+](c3ccccc3)(c3ccccc3)c3ccccn3)cc(O)c12 have recorded activity at 10 µM that is -80% or more?
Key: -1

Exercise: Does the molecule O=c1cc(-c2ccccc2)oc2cc(OCCCC[P+](C3CCCCC3)(C3CCCCC3)C3CCCCC3)cc(O)c12 have recorded activity at 10 µM that is -80% or more?
Key: -1

Exercise: Does the molecule O=c1cc(-c2ccccc2)oc2cc(OCCCC[P+](c3ccccc3)(c3ccccc3)c3ccccc3)cc(O)c12 have recorded activity at 10 µM that is -80% or more?
Key: -1

Exercise: Does the molecule Cc1ccc([P+](CCCCOc2cc(O)c3c(=O)cc(-c4ccccc4)oc3c2)(c2ccc(C)cc2)c2ccc(C)cc2)cc1 have recorded activity at 10 µM that is -80% or more?
Key: 1

Exercise: Does the molecule O=c1cc(-c2ccccc2)oc2cc(O)cc(O)c12 [compound 2, 5,7-dihydroxyflavone, reference compound] have recorded activity at 10 µM that is -80% or more?
Key: 1

* * *

system: CNS Cancer panel
Rule: GI50 below 0.3 µM gives Met. Equal to or above 0.3 µM gives Not met.

Exercise: Determine if O=c1cc(-c2ccccc2)oc2cc(OCCCC[P+](C3CCCCC3)(C3CCCCC3)C3CCCCC3)cc(O)c12 shows GI50 strictly lower than 0.3 µM.
Key: Not met

Exercise: Determine if COc1c(C)cc([P+](CCCCOc2cc(O)c3c(=O)cc(-c4ccccc4)oc3c2)(c2cc(C)c(OC)c(C)c2)c2cc(C)c(OC)c(C)c2)cc1C shows GI50 strictly lower than 0.3 µM.
Key: Met

Exercise: Determine if O=c1cc(-c2ccccc2)oc2cc(OCCCC[P+](c3ccccc3)(c3ccccc3)c3ccccn3)cc(O)c12 shows GI50 strictly lower than 0.3 µM.
Key: Not met

Exercise: Determine if COc1ccc([P+](CCCCOc2cc(O)c3c(=O)cc(-c4ccccc4)oc3c2)(c2ccc(OC)cc2)c2ccc(OC)cc2)cc1 shows GI50 strictly lower than 0.3 µM.
Key: Not met

Exercise: Determine if Cc1ccccc1[P+](CCCCOc1cc(O)c2c(=O)cc(-c3ccccc3)oc2c1)(c1ccccc1C)c1ccccc1C shows GI50 strictly lower than 0.3 µM.
Key: Not met

Exercise: Determine if O=c1cc(-c2ccccc2)oc2cc(OCCCC[P+](c3ccc(F)cc3)(c3ccc(F)cc3)c3ccc(F)cc3)cc(O)c12 shows GI50 strictly lower than 0.3 µM.
Key: Not met

* * *

system: HOP-62
ASSAY ENDPOINT: GI50 (nM)
Respond with the bare value in nM.

Exercise: Determine its reported GI50: Cc1ccc([P+](CCCCOc2cc(O)c3c(=O)cc(-c4ccccc4)oc3c2)(c2ccc(C)cc2)c2ccc(C)cc2)cc1 [3b]
Key: 307

Exercise: Determine its reported GI50: O=c1cc(-c2ccccc2)oc2cc(OCCCC[P+](c3ccc(F)cc3)(c3ccc(F)cc3)c3ccc(F)cc3)cc(O)c12 [3d]
Key: 1560

Exercise: Determine its reported GI50: O=c1cc(-c2ccccc2)oc2cc(OCCCC[P+](c3ccccc3)(c3ccccc3)c3ccccc3)cc(O)c12 [3a]
Key: 480

Exercise: Determine its reported GI50: COc1c(C)cc([P+](CCCCOc2cc(O)c3c(=O)cc(-c4ccccc4)oc3c2)(c2cc(C)c(OC)c(C)c2)c2cc(C)c(OC)c(C)c2)cc1C [3f]
Key: 311

Exercise: Determine its reported GI50: Cc1ccccc1[P+](CCCCOc1cc(O)c2c(=O)cc(-c3ccccc3)oc2c1)(c1ccccc1C)c1ccccc1C [3g]
Key: 332

Exercise: Determine its reported GI50: O=c1cc(-c2ccccc2)oc2cc(OCCCC[P+](c3ccccc3)(c3ccccc3)c3ccccn3)cc(O)c12 [3h]
Key: 1520

Exercise: Determine its reported GI50: COc1ccc([P+](CCCCOc2cc(O)c3c(=O)cc(-c4ccccc4)oc3c2)(c2ccc(OC)cc2)c2ccc(OC)cc2)cc1 [3c]
Key: 732

Exercise: Determine its reported GI50: O=c1cc(-c2ccccc2)oc2cc(OCCCC[P+](C3CCCCC3)(C3CCCCC3)C3CCCCC3)cc(O)c12 [3e]
Key: 1560

* * *

tested on: MDA-MB-231/ATCC; experiment: NCI60 one-dose screen; assay type: cell-based; conditions: Homo sapiens, read-out: Growth percent
Rule: activity at 10 µM below -70% gives t. Equal to or above -70% gives f.

Exercise: Determine if O=c1cc(-c2ccccc2)oc2cc(OCCCC[P+](c3ccccc3)(c3ccccc3)c3ccccc3)cc(O)c12 shows activity at 10 µM strictly lower than -70%.
Key: f

Exercise: Determine if Cc1ccc([P+](CCCCOc2cc(O)c3c(=O)cc(-c4ccccc4)oc3c2)(c2ccc(C)cc2)c2ccc(C)cc2)cc1 shows activity at 10 µM strictly lower than -70%.
Key: t

Exercise: Determine if O=c1cc(-c2ccccc2)oc2cc(O)cc(O)c12 [compound 2, 5,7-dihydroxyflavone, reference compound] shows activity at 10 µM strictly lower than -70%.
Key: f

Exercise: Determine if COc1c(C)cc([P+](CCCCOc2cc(O)c3c(=O)cc(-c4ccccc4)oc3c2)(c2cc(C)c(OC)c(C)c2)c2cc(C)c(OC)c(C)c2)cc1C shows activity at 10 µM strictly lower than -70%.
Key: t

Exercise: Determine if O=c1cc(-c2ccccc2)oc2cc(OCCCC[P+](C3CCCCC3)(C3CCCCC3)C3CCCCC3)cc(O)c12 shows activity at 10 µM strictly lower than -70%.
Key: t

Exercise: Determine if O=c1cc(-c2ccccc2)oc2cc(OCCCC[P+](c3ccccc3)(c3ccccc3)c3ccccn3)cc(O)c12 shows activity at 10 µM strictly lower than -70%.
Key: t

Exercise: Determine if O=c1cc(-c2ccccc2)oc2cc(OCCCC[P+](c3ccc(F)cc3)(c3ccc(F)cc3)c3ccc(F)cc3)cc(O)c12 shows activity at 10 µM strictly lower than -70%.
Key: t
